target system: Matrix metalloproteinase-16 (Homo sapiens)
pKi: −log10 of the molar value.
assay metric: pKi

{"smiles entry": "CNC(=O)CNC(=O)[C@@H]1Cc2ccc(cc2)OCCC[C@H](C(=O)NO)[C@@H](CC(C)C)C(=O)N1", "target system": "Matrix metalloproteinase-16 (Homo sapiens)", "recorded result": 7.46}

====

target system: UniProt:P08253
Sequence (P08253 whole entry): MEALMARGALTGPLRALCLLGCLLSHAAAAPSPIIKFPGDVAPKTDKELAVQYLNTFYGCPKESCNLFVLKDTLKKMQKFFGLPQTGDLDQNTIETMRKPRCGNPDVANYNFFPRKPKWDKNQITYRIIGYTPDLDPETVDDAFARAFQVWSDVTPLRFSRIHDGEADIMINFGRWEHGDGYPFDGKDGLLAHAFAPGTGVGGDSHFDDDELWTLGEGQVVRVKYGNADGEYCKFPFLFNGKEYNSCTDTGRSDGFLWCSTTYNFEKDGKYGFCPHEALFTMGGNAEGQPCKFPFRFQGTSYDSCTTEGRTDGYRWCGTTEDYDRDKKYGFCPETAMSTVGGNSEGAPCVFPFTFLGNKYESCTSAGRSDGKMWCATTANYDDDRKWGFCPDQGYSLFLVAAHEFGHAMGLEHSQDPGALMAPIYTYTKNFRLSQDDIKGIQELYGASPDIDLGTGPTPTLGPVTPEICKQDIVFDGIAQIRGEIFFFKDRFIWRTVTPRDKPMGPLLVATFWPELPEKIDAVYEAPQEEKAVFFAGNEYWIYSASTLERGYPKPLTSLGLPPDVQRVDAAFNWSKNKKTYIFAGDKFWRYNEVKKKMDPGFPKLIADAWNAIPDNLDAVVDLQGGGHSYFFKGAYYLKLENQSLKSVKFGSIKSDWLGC

{"smiles entry": "CNC(=O)CNC(=O)[C@@H]1Cc2ccc(cc2)OCCC[C@H](C(=O)NO)[C@@H](CC(C)C)C(=O)N1", "unit label": "nM", "Ki": 1.1}

====

run description: Pharmacokinetic data in Beagle dogs at 0.863 mg/kg oral dose.
Assay type: ADME, organism-based, Canis lupus familiaris
Set-up: dose 0.863 mg/kg, route oral
settings: dog, in vivo

{"smiles entry": "CNC(=O)CNC(=O)[C@@H]1Cc2ccc(cc2)OCCC[C@H](C(=O)NO)[C@@H](CC(C)C)C(=O)N1", "unit label": "h", "half-life": 1.29}
